- Test system: human epithelial (A-549) cancer cell line
- method description: Antiproliferative assay, A-549
- Format: cell-based
- study conditions: A549, read-out: Antiproliferative Activity IC50 ± SEM, A-549
pIC50: −log10 of the molar value.
experimental readout: pIC50

C#Cc1cccc(Nc2ncnc3cc(OCCOC)c(OCCOC)cc23)c1 [Erlotinib, reference compound] : 7.52
CCc1c(C(=O)NCC(c2ccccc2)c2c(-c3ccccc3)[nH]c3ccccc23)[nH]c2ccc(Cl)cc12 (stereo not drawn) [Compound Vc] : 7.27
O=C(NCC(c1ccccc1)c1c(-c2ccccc2)[nH]c2ccccc12)c1[nH]c2ccc(Cl)cc2c1-c1ccccc1 (stereo not drawn) [Vf] : 7.34
CCOCc1c(C(=O)NCC(c2ccccc2)c2c(-c3ccccc3)[nH]c3ccccc23)[nH]c2ccc(Cl)cc12 (stereo not drawn) [Compound Vh] : 7.47
CO/C=C/c1c(C(=O)NCC(c2ccccc2)c2c(-c3ccccc3)[nH]c3ccccc23)[nH]c2ccc(Cl)cc12 (stereo not drawn) [Compound Vg] : 7.52
NCC(c1ccccc1)c1c(-c2ccccc2)[nH]c2ccccc12 (stereo not drawn) [Compound IV] : 6.99

Ref: paper PMC10385579
